Give measured Kd for each item. Keep answers brief.
Molecular target: CaM (Bos taurus)
Construct: made in house; host or cells: E. coli BL21 (DE3)
Test: Pull-down assay with immobilized protein and LSM libraries
Type: binding, bovine
Details: H12 library; 1:2 stoichiometry assumed; read-out: Surface mapping KD (apparent)

Identify Kd associated with the compound CSCC[C@@H](CC(=O)N[C@H]1CCC[C@@H]1C(=O)N[C@H]1CCC[C@@H]1C(=O)N[C@H](CC(=O)N[C@H]1CCC[C@@H]1C(=O)N[C@H]1CCC[C@@H]1C(N)=O)Cc1ccc(O)cc1)NC(=O)[C@H]1CCC[C@@H]1NC(=O)[C@H]1CCC[C@@H]1N [H12 MY]
178 µM

Return Kd for the following compound: NC(=O)[C@H]1CCC[C@@H]1NC(=O)[C@H]1CCC[C@@H]1NC(=O)C[C@H](Cc1ccccc1)NC(=O)[C@H]1CCC[C@@H]1NC(=O)[C@H]1CCC[C@@H]1NC(=O)C[C@H](Cc1ccc(O)cc1)NC(=O)[C@H]1CCC[C@@H]1NC(=O)[C@H]1CCC[C@@H]1N [H12 YF]
30 µM

Entry CC[C@H](C)[C@@H](CC(=O)N[C@H]1CCC[C@@H]1C(=O)N[C@H]1CCC[C@@H]1C(=O)N[C@H](CC(=O)N[C@H]1CCC[C@@H]1C(=O)N[C@H]1CCC[C@@H]1C(N)=O)Cc1c[nH]c2ccccc12)NC(=O)[C@H]1CCC[C@@H]1NC(=O)[C@H]1CCC[C@@H]1N [H12 IW] needs its Kd filled in; supply it.
19 µM

Indicate its recorded Kd; the compound in question is CC(C)C[C@@H](CC(=O)N[C@H]1CCC[C@@H]1C(=O)N[C@H]1CCC[C@@H]1C(N)=O)NC(=O)[C@H]1CCC[C@@H]1NC(=O)[C@H]1CCC[C@@H]1NC(=O)C[C@H](CCC(N)=O)NC(=O)[C@H]1CCC[C@@H]1NC(=O)[C@H]1CCC[C@@H]1N [H12 QL]
263 µM

###

Provide the reported Kd of each item.
Biological target: S100A4 (Homo sapiens, UniProt P26447)
Construct: made in house; host or cells: Escherichia coli BL21(DE3)
Sequence (P26447 whole entry): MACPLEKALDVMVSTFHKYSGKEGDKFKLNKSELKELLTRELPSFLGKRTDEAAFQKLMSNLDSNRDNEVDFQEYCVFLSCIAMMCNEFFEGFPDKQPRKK
Assay: Pull-down assay with immobilized protein and LSM libraries
Format: binding
Conditions: H14 library; 1:1 binding assumed; read-out: Surface mapping KD (apparent)
Unit µM implied. Number only.

Specify the recorded Kd for C[C@@H](CC(=O)N[C@H]1CCCC[C@@H]1C(=O)N[C@H]1CCCC[C@@H]1C(=O)N[C@H](CC(=O)N[C@H]1CCCC[C@@H]1C(N)=O)Cc1c[nH]c2ccccc12)NC(=O)[C@H]1CCCC[C@@H]1N [H14 AW] , system: S100A4 (Homo sapiens, UniProt P26447).
42

Give measured Kd for CC(C)[C@@H](CC(=O)N[C@H]1CCCC[C@@H]1C(N)=O)NC(=O)[C@H]1CCCC[C@@H]1NC(=O)[C@H]1CCCC[C@@H]1NC(=O)C[C@H](Cc1c[nH]c2ccccc12)NC(=O)[C@H]1CCCC[C@@H]1N [H14 WV] (S100A4 (Homo sapiens, UniProt P26447)).
13

###

Biological target: CaM (Bos taurus)
Construct: made in house; host or cells: E. coli BL21 (DE3)
Assay: Pull-down assay with immobilized protein and LSM libraries
Assay type: binding, bovine
Settings: H12 library; 1:2 stoichiometry assumed; read-out: Surface mapping KD (apparent)
Record form. Attribute: pKd. Fill in for each entry.
Expect pKd as a plain number equal to -log10 of the molar concentration.

Please look at this compound and report its pKd: "NC(=O)CC[C@@H](CC(=O)N[C@H]1CCC[C@@H]1C(=O)N[C@H]1CCC[C@@H]1C(=O)N[C@H](CC(=O)N[C@H]1CCC[C@@H]1C(=O)N[C@H]1CCC[C@@H]1C(N)=O)Cc1c[nH]c2ccccc12)NC(=O)[C@H]1CCC[C@@H]1NC(=O)[C@H]1CCC[C@@H]1N"
4.26

Using known records, supply pKd for "CC(C)C[C@@H](CC(=O)N[C@H]1CCC[C@@H]1C(=O)N[C@H]1CCC[C@@H]1C(=O)N[C@H](CC(=O)N[C@H]1CCC[C@@H]1C(=O)N[C@H]1CCC[C@@H]1C(N)=O)Cc1c[nH]c2ccccc12)NC(=O)[C@H]1CCC[C@@H]1NC(=O)[C@H]1CCC[C@@H]1N"
4.72

Quick one: give measured pKd for "CC[C@H](C)[C@@H](CC(=O)N[C@H]1CCC[C@@H]1C(=O)N[C@H]1CCC[C@@H]1C(N)=O)NC(=O)[C@H]1CCC[C@@H]1NC(=O)[C@H]1CCC[C@@H]1NC(=O)C[C@@H](NC(=O)[C@H]1CCC[C@@H]1NC(=O)[C@H]1CCC[C@@H]1N)C(C)C"
3.79

Complete the entry with pKd for "NC(=O)[C@H]1CCC[C@@H]1NC(=O)[C@H]1CCC[C@@H]1NC(=O)C[C@H](Cc1ccccc1)NC(=O)[C@H]1CCC[C@@H]1NC(=O)[C@H]1CCC[C@@H]1NC(=O)C[C@H](Cc1ccccc1)NC(=O)[C@H]1CCC[C@@H]1NC(=O)[C@H]1CCC[C@@H]1N"
4.68

###

Biological target: RecQ-WH (Escherichia coli, UniProt P15043)
Construct: coding for residues 408– 523 of E. coli RecQ; made in house; host or cells: E. coli BL21(DE3)
Sequence (P15043 408-523): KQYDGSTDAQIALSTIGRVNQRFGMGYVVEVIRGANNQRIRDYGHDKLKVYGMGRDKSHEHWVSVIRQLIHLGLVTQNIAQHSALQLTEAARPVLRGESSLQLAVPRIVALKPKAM
Assay: Pull-down assay with immobilized protein and LSM libraries
Set-up: species or system E. coli
Conditions: H14 library; 1:1 binding assumed; read-out: Surface mapping KD (apparent)
measure name: Kd (µM)
Answer in µM, number only, no unit symbol.

Indicate the recorded Kd value for this molecule: "CC[C@H](C)[C@@H](CC(=O)N[C@H]1CCCC[C@@H]1C(=O)N[C@H]1CCCC[C@@H]1C(=O)N[C@@H](CCSC)CC(=O)N[C@H]1CCCC[C@@H]1C(N)=O)NC(=O)[C@H]1CCCC[C@@H]1N"
340

Specify reported Kd for the molecule shown: "CC[C@H](C)[C@@H](CC(=O)N[C@H]1CCCC[C@@H]1C(N)=O)NC(=O)[C@H]1CCCC[C@@H]1NC(=O)[C@H]1CCCC[C@@H]1NC(=O)C[C@H](Cc1ccc(O)cc1)NC(=O)[C@H]1CCCC[C@@H]1N"
150

Name the recorded Kd of the molecule listed here: "CC[C@H](C)[C@@H](CC(=O)N[C@H]1CCCC[C@@H]1C(N)=O)NC(=O)[C@H]1CCCC[C@@H]1NC(=O)[C@H]1CCCC[C@@H]1NC(=O)C[C@H](CCSC)NC(=O)[C@H]1CCCC[C@@H]1N"
226

Identify the reported Kd for the following entry. "CC(C)[C@@H](CC(=O)N[C@H]1CCCC[C@@H]1C(N)=O)NC(=O)[C@H]1CCCC[C@@H]1NC(=O)[C@H]1CCCC[C@@H]1NC(=O)C[C@H](Cc1c[nH]c2ccccc12)NC(=O)[C@H]1CCCC[C@@H]1N"
102

# return recorded Kd for entry "CC[C@H](C)[C@@H](CC(=O)N[C@H]1CCCC[C@@H]1C(N)=O)NC(=O)[C@H]1CCCC[C@@H]1NC(=O)[C@H]1CCCC[C@@H]1NC(=O)C[C@H](CCCNC(=N)N)NC(=O)[C@H]1CCCC[C@@H]1N"
237

Specify reported Kd for the molecule shown: "NC(=O)[C@H]1CCCC[C@@H]1NC(=O)C[C@H](CC(=O)O)NC(=O)[C@H]1CCCC[C@@H]1NC(=O)[C@H]1CCCC[C@@H]1NC(=O)C[C@H](Cc1c[nH]c2ccccc12)NC(=O)[C@H]1CCCC[C@@H]1N"
145

Output Kd of "CSCC[C@@H](CC(=O)N[C@H]1CCCC[C@@H]1C(N)=O)NC(=O)[C@H]1CCCC[C@@H]1NC(=O)[C@H]1CCCC[C@@H]1NC(=O)C[C@H](CCCCN)NC(=O)[C@H]1CCCC[C@@H]1N"
459

Look up Kd of "CC(C)C[C@@H](CC(=O)N[C@H]1CCCC[C@@H]1C(=O)N[C@H]1CCCC[C@@H]1C(=O)N[C@H](CC(=O)N[C@H]1CCCC[C@@H]1C(N)=O)Cc1ccc(O)cc1)NC(=O)[C@H]1CCCC[C@@H]1N" and report it.
239

Note down Kd recorded for "CC[C@H](C)[C@@H](CC(=O)N[C@H]1CCCC[C@@H]1C(N)=O)NC(=O)[C@H]1CCCC[C@@H]1NC(=O)[C@H]1CCCC[C@@H]1NC(=O)C[C@H](CC(C)C)NC(=O)[C@H]1CCCC[C@@H]1N"
160

Return reported Kd. Input molecule: "NC(=O)[C@H]1CCCC[C@@H]1NC(=O)C[C@H](Cc1ccccc1)NC(=O)[C@H]1CCCC[C@@H]1NC(=O)[C@H]1CCCC[C@@H]1NC(=O)C[C@H](Cc1ccccc1)NC(=O)[C@H]1CCCC[C@@H]1N"
134

For the molecule "NC(=O)[C@H]1CCCC[C@@H]1NC(=O)C[C@H](Cc1ccc(O)cc1)NC(=O)[C@H]1CCCC[C@@H]1NC(=O)[C@H]1CCCC[C@@H]1NC(=O)C[C@H](Cc1c[nH]c2ccccc12)NC(=O)[C@H]1CCCC[C@@H]1N" , report Kd.
50

Quote Kd reported for "C[C@@H](CC(=O)N[C@H]1CCCC[C@@H]1C(=O)N[C@H]1CCCC[C@@H]1C(=O)N[C@H](CC(=O)N[C@H]1CCCC[C@@H]1C(N)=O)Cc1ccccc1)NC(=O)[C@H]1CCCC[C@@H]1N" please.
483

Look up and state reported Kd for "C[C@@H](CC(=O)N[C@H]1CCCC[C@@H]1C(N)=O)NC(=O)[C@H]1CCCC[C@@H]1NC(=O)[C@H]1CCCC[C@@H]1NC(=O)C[C@H](Cc1c[nH]c2ccccc12)NC(=O)[C@H]1CCCC[C@@H]1N"
293

Look up and state reported Kd for "CSCC[C@@H](CC(=O)N[C@H]1CCCC[C@@H]1C(N)=O)NC(=O)[C@H]1CCCC[C@@H]1NC(=O)[C@H]1CCCC[C@@H]1NC(=O)C[C@H](CCCNC(=N)N)NC(=O)[C@H]1CCCC[C@@H]1N"
294

Fill in reported Kd for this entry: "N=C(N)NCCC[C@@H](CC(=O)N[C@H]1CCCC[C@@H]1C(N)=O)NC(=O)[C@H]1CCCC[C@@H]1NC(=O)[C@H]1CCCC[C@@H]1NC(=O)C[C@H](CCCNC(=N)N)NC(=O)[C@H]1CCCC[C@@H]1N"
355

Assign Kd to the following record: "NCCCC[C@@H](CC(=O)N[C@H]1CCCC[C@@H]1C(N)=O)NC(=O)[C@H]1CCCC[C@@H]1NC(=O)[C@H]1CCCC[C@@H]1NC(=O)C[C@H](Cc1c[nH]c2ccccc12)NC(=O)[C@H]1CCCC[C@@H]1N"
287

Answer with reported Kd of "NC(=O)[C@H]1CCCC[C@@H]1NC(=O)C[C@H](CO)NC(=O)[C@H]1CCCC[C@@H]1NC(=O)[C@H]1CCCC[C@@H]1NC(=O)C[C@H](Cc1c[nH]c2ccccc12)NC(=O)[C@H]1CCCC[C@@H]1N"
209

Provide measured Kd value, entry: "CC(C)[C@@H](CC(=O)N[C@H]1CCCC[C@@H]1C(=O)N[C@H]1CCCC[C@@H]1C(=O)N[C@H](CC(=O)N[C@H]1CCCC[C@@H]1C(N)=O)Cc1ccc(O)cc1)NC(=O)[C@H]1CCCC[C@@H]1N"
115
